method.summary: yeast display, Sf9 membrane polyspecificity reagent, FACS + sequencing; frameworks hold sequencing errors
observed.property: polyreactivity (PSR sort gate)

// `QVQLVESGGGLVQAGGSLRLSCAASGFTFFYNAMGWYRQAPGKEREFVAAISGRGGTTYYADSVKGRFTISRDNAKNTVYLQMNSLKPEDTAVYYCAAYYRGYAYNYWGQGTQVTLSS` : polyreactivity (PSR sort gate) value = high polyreactivity

Entry `QVQLVESGGGLVPAGGSLRLSCAASGSIFPVYAMGWYRQAPGKERELVASISTGGSTYYADSVKGRFTISRDNAKNTVYLQMNSLKPEDNAVYYCDATGWAYGYGYWGQGTQVTVSS` — recorded polyreactivity (PSR sort gate) = low polyreactivity

Lookup result for `QVQLVESGGGLVQAGGSLRLSCAASGRIFAVYAMGWYRQAPGKERELVAAISWSGGRTNYADSVKGRFTISRDNAKKTVYLQMNSLKPEDTAVYYCNARQWRFGFVASGGKYNYWGQGTQVTVSA` ; measured polyreactivity (PSR sort gate): high polyreactivity

According to the records, this sequence `QVQLGESGGGLVQAGGSLRLSCAASGSILTPYSMGWYRQAPGKERELDAAITFRGGSTYYADSVKGRFTISRDNAKNTVYLQMNSLKPEDTAVYYCAAGWYWSYWDPYDYWGQGTQVTVSS` displays polyreactivity (PSR sort gate) of high polyreactivity

In plain terms, `QVQLVESGGCLVQAGGSLRLSCAASGSTLRSHAMGWYRQAPGKERELVASISAGGSTSYADSVKGRFTISRDNAKNTVYRQMNSLKPEDTAVYYCAADNSVGSYDYWGQGTEVTVSS` has a documented polyreactivity (PSR sort gate) of low polyreactivity

In plain terms, `QVQLVESGGGLVQAGGSLRLSCAASGSIFYVYAMGWYRQAPGKERELVATISSSAGSTYYADSVKGRFTISRDNAKNTVYLQMNSLKPEDTAVYYCAVRQIYQTSDHRLQYDYWGQGTQVTVSS` has a documented polyreactivity (PSR sort gate) of low polyreactivity

More entries:
In plain terms, `QVQLVESGGGLVQAGGSLRLSCAASGLMFRHYAMGWYRPAPGKERELVAAIDYSGGSTYYADSVKGRFTISRDNAKNTVYLQMNCLKPEDTAVYYCNRYHRLRVVPSRFVKYDYWGQGTQVTVSS` has a documented polyreactivity (PSR sort gate) of low polyreactivity

polyreactivity (PSR sort gate) reported for this sequence `QVQLVESGGGLVQAGGSLRLSCAASGRIFLSYAMGWYRQAPGKERELVAAISQSGSSKYYADSVKGRFTISRDNAKNTVYLQMNSLKPEDTAVYYCAARTGRKYYYWGQGTQVTVST` : high polyreactivity

Lab note: `QVQLVESGGGLVQAGGSLRLSCAASGFIFGQYAMGWSRQAPGKERELVAAISSVGTTNYADSVKGRFTISRDNAKNTVYLQMNSLKPEDTAVYYCNAPVFYYWDYSYFPYEVDYWGQGTQVTVSS` gave polyreactivity (PSR sort gate) of low polyreactivity

For `QVQLVESGGCLVQAGGSLRLSSAASGSTFYYYVMGLYRQAPGKERELVAAINSGGSTYYADSVQGRFTISRDNAKNTVYLQMNSLKPEDTAVYYCAKSCSYWYQYYYWGQGSQVTVSS` the sequence record lists polyreactivity (PSR sort gate) as low polyreactivity

For this sequence ( `QVQLVESGGGVVQAGGSLRLSCAASGRTFNYYAMGWYRQAPGKERELVAAISRTATTYYADSVKGRFTISRDNAKNTVYLQMNSLKPEDTAVYYCAARSYSSSFSYRHYYWGQGTQVTVSS` ), measured polyreactivity (PSR sort gate) is high polyreactivity

Notebook: `QVQLVESGGGLVQAGGSLRLSCAASGSIFEQNAMGWYRQAPGKERELVAGINEGGGSTYYADSVKGRFTISRDNAKNTVYLQMNSLKPEDTAVYYCAATLGSRWAIYDYWGQGTQVTVSS` , polyreactivity (PSR sort gate) read as high polyreactivity

So for `QDQLVESGGGLVQAGGRLRLSCAASGSIFLKYSMGWYRQAPGKVRELVAVISQSGGRTYYADSVKGRFTISRDNAKNTVYLQMNILKPEETAVYYCNVDISWLRRKFDYWGQGTQVTVSS` , the logged polyreactivity (PSR sort gate) turned out to be low polyreactivity

Item: `QVQLVESGGGLVQAGGSLRLSCAPSGIFYKYAMGWYRQAPGKERELVAAISISGTSTYYADSVKGRFTISRDNAKNTVYLQMNSLKPEDTAVYYCAADEFYFAPPVAGENYWGQGTQVTVSS` | polyreactivity (PSR sort gate): low polyreactivity

Briefly, polyreactivity (PSR sort gate) measured for `QVQLVESGGGLVQAGGSLRLSCAASGITFPDYDMGWYRQAPGKERELVAAITYRSGSTYYADSVKGRFTISRDNAKNTVYLQMNSLKPEDTAVYYCNKYGQVPGYFSLDYWGQGTQVTVSS` : high polyreactivity

Just so you know, measured polyreactivity (PSR sort gate) for `QVQLVESGGGLVQAGGSLRLSCAASGLILSSNAMGWYRQAPGKERELVAAITWDGDRTYADSVKGRFTISRDNAKNTVYLQMNSLKPEDTAVYYCAADKQYSWYDWSYDYWGQGTQVTVSS` came out at low polyreactivity

Entry `QVQLVESGGGLVQAGGSLRLSCAASGLTLETNAMGWYRQAPGKERELVAGITYSGGTTYYADSVKGRFTISRDNAKNTVYLQMNSLKPEDTAVYYCAAHTRTSGHNYWGQGTQVTVSS` — recorded polyreactivity (PSR sort gate) = low polyreactivity

---

method.summary: yeast display, Sf9 membrane polyspecificity reagent, FACS + sequencing; frameworks hold sequencing errors
observed.property: polyreactivity (PSR sort gate)

Reference set (4 entries):
polyreactivity (PSR sort gate) in this record for `QVQLVESGGGLVQAGGSLRLSCAASGSTFSGNAMGWYRQAPGKEREFVAAIFSDGSTYYADSVKGRFTISRDNAKNTVYLQMNSLKPEDTAVYYCAAAWYEPATQTGYFEFDYWGQGTQVTVSS` : low polyreactivity

Lookup result for `QVQLVESGGGLVQAGGSLRLICAASGIIFFRYAMGWYRQAPGKERELVASIRAIGGSTSYADSVKGRFTISRDNAKNTVYLQMNSLKPEDTAVFYCAARQNYRYGYWGQGTQVTVSS` ; measured polyreactivity (PSR sort gate): high polyreactivity

polyreactivity (PSR sort gate) reported for this sequence `QVQLVESGGGLVQAGGSLRLSCAASGRIFTYYTMGGYRQAPGKERELVATINSSGGSTYYADSVKGRFTISRDNAKNTVYLQMNRLKPEDTAVYYCNDAYKSQVRYRRYNYWGQGTQVTVSS` : high polyreactivity

The reported polyreactivity (PSR sort gate) of the sequence `QVQLVESGGGLVQAGGSLRLSCAASGITFTFYAMGWYRQAPGKERELVAAISRRGGSTYYADSVKGRFTISRDNAKNTVYLQMNSLKPEDTAVYYCAARGYRPMDYWGHGTQVTVSS` was high polyreactivity

# next sequence below
Measured polyreactivity (PSR sort gate), `QVQLVESGGGLVQAGGSLRLICAASGFTFLTNAMGWYRQAPGKERELVAAISSGGNTNYADSVKGRFTISRDNAKNTVYLQMNSLKPEDTAVYYCAADNDYLSSQVSYYYWGHGTQVTVSS` : low polyreactivity

---

method.summary: yeast display, Sf9 membrane polyspecificity reagent, FACS + sequencing; frameworks hold sequencing errors
observed.property: polyreactivity (PSR sort gate)

Some entries whose results are on file:
Sure, the documented polyreactivity (PSR sort gate) for `QVQLVESGGGLVQAGGSLRLSCAASGRTFGYNTMGWYRQAPGKEREFVATIRTNGVSTYYADSVKGRFTISRDNAKNTVYLQMNSLKPEDTAVYYCNAPRTRKQKTIYVNAPGNYWGQGTQVTVSS` is low polyreactivity

Briefly, polyreactivity (PSR sort gate) measured for `QVQLVESGGGLVQAGGSLRLSCAASGSTFSTNAMGWYRPAPGKERELVAAISRSGGSTYYADSVKGRFTHSRDNEKNTVYLHMNSLKPEDTAVYYCARVSGYRYDYWGQGTQVTVSS` : high polyreactivity

Looking up `QVQLVESGGGLVQAGGSLRLICAASGSTFGPYSMGWYRQAPGKERELVAAIDQISSSTHYADSVKGRFTISRDNAKNTVYLQMNSLKPEDTAVYYCNADEFRYGYFPHYDYWGQGTQVTVSS` , I found its polyreactivity (PSR sort gate) recorded as low polyreactivity

GET /value?item= `QVQLVESGGGLVQAGGSLRLSCAASGSIFLVYSMGWYRQAPGKERELVAGITSDDSTNYADSVKGRFTISRDNAKNTVYLQMNSLKPEDTAVYYCAKDSLVWYIVDLGYWGQGTQVTVSS` &field=polyreactivity (PSR sort gate) returns low polyreactivity

Next:
Input `HVQLVESGGGLVQAGGSLRLSCAASGSTFNRYAMGWYRQAPGKERELVAAITERGGSTYYADSVKGRFTISRDNAKNTVYLQMNRLIPEDTAVYYCAARSKYYRSTPFVSDYWGQGTQVTVSS` . Output polyreactivity (PSR sort gate): high polyreactivity
